Values compiled from ChEMBL document CHEMBL3885861.

organism: Rattus norvegicus; assay: Open TG-GATES - Regimen: Single; type: toxicity, organism-based, Sprague-Dawley; parameters: regimen Single, gender Male, age 6 weeks; conditions: in vivo, po, 0 mg/kg, 6 h, tissue Blood, route gavage, dose level Control
Consider the following molecules and their measured Plat readings.
Give the figure together with its unit, number first.

Some solved entries appear below for comparison.
molecule	Plat
CCO	116.1 x10_4/uL
O=c1ccc2ccccc2o1	108.2 x10_4/uL
CC(=O)[C@@]1(O)CC[C@H]2[C@@H]3C=C(Cl)C4=CC(=O)CC[C@]4(C)[C@H]3CC[C@@]21C	112 x10_4/uL

The reported value for CC(S)C(=O)NCC(=O)O (stereo not drawn) in terms of Plat is 116.3 x10_4/uL

The reported value for `CN(C)CCCN1c2ccccc2Sc2ccc(Cl)cc21` in terms of Plat is 113.2 x10_4/uL

The reported value for `CN(C/C=C/C#CC(C)(C)C)Cc1cccc2ccccc12` in terms of Plat is 132.2 x10_4/uL

The reported value for CN(CCOc1ccc(CC2SC(=O)NC2=O)cc1)c1ccccn1.O=C(O)/C=C\C(=O)O (stereo not drawn) [ROSIGLITAZONE MALEATE] in terms of Plat is 117 x10_4/uL

The reported value for `COc1ccc([C@@H]2Sc3ccccc3N(CCN(C)C)C(=O)[C@@H]2OC(C)=O)cc1` in terms of Plat is 116.6 x10_4/uL

The reported value for CCCCNC(=O)NS(=O)(=O)c1ccc(C)cc1 [TOLBUTAMIDE] in terms of Plat is 131.1 x10_4/uL

The reported value for `CCN(CC)C(=S)SSC(=S)N(CC)CC` in terms of Plat is 119.2 x10_4/uL

The reported value for `Nc1ccc(Cc2ccc(N)cc2)cc1` in terms of Plat is 134.9 x10_4/uL

The reported value for NS(=O)(=O)c1cc(C(=O)O)c(NCc2ccco2)cc1Cl [FUROSEMIDE] in terms of Plat is 122.5 x10_4/uL

The reported value for `O=C(O)c1ccccc1Nc1ccccc1` in terms of Plat is 112.2 x10_4/uL
